Molecular target: androgen receptor (Homo sapiens)
Sequence (P10275 1-920 Q868H): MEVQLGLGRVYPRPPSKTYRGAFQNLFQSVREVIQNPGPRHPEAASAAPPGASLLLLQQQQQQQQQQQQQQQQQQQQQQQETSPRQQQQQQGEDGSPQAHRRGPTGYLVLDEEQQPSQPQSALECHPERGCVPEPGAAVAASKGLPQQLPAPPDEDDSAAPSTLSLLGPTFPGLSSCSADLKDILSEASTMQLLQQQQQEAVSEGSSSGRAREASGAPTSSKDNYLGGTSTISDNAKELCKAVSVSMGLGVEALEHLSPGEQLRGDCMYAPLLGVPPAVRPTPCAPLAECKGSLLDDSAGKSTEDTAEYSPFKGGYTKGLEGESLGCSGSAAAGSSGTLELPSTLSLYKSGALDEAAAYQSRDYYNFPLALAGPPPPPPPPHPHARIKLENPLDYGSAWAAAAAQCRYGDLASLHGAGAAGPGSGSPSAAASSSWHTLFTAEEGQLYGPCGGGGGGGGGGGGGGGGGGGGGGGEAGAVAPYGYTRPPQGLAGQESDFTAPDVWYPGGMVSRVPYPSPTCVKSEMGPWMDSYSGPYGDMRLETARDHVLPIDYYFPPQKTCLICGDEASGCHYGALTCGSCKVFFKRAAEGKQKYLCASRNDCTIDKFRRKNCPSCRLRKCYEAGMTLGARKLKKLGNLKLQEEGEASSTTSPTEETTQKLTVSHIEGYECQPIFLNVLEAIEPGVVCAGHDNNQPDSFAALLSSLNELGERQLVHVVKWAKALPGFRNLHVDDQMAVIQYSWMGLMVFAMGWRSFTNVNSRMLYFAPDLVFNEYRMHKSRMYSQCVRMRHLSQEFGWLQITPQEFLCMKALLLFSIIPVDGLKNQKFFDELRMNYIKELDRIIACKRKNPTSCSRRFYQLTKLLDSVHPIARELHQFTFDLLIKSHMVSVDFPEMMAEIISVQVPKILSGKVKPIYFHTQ
Experiment: AR Antagonist Cell Assay (MMTV-luciferase reporter, DHT-stimulated)
Details: MDA-MB453-MMTV clone 54-19 cells; antagonism of 100 pM DHT, 17 hr, luciferase readout
Experimental: The compounds ability to antagonize the effects of androgen on the androgen receptor were determined in the protocol described immediately below. Experimental Procedure for AR Antagonist Cell Assay Cell line: MDA-MB453-MMTV clone 54–19. […] The fold induction over background by 100 pM DHT in the absence of testing compounds is standardized as 100% and experimental result is expressed as percentage of inhibition by testing compounds.
ENDPOINT NAME: IC50

>  <COMPOUND>
CCOC(=O)C(NS(=O)(=O)c1ccc(Cc2ccc3[nH]c(=O)cc(C(F)(F)F)c3c2)cc1)c1ccccc1 (stereo not shown) [Example 89]

>  <IC50>
> 10 µM

$$$$
>  <COMPOUND>
O=c1cc(C(F)(F)F)c2cc(Cc3ccc(S(=O)(=O)Nc4cc5ccccc5cn4)cc3)ccc2o1 [Example 136]

>  <IC50>
> 10 µM

$$$$
>  <COMPOUND>
O=c1cc(C(F)(F)F)c2cc(Cc3ccc(S(=O)(=O)Nc4cc(F)c(F)c(F)c4)cc3)ccc2[nH]1 [Example 35]

>  <IC50>
> 10 µM

$$$$
>  <COMPOUND>
CCCCN(CCO)S(=O)(=O)c1ccc(Cc2ccc3oc(=O)cc(C(F)(F)F)c3c2)cc1 [Example 100]

>  <IC50>
~10 µM

$$$$
>  <COMPOUND>
CN(CCc1ccccc1)S(=O)(=O)c1ccc(Cc2ccc3oc(=O)cc(C(F)(F)F)c3c2)cc1 [Example 112]

>  <IC50>
> 10 µM

$$$$
>  <COMPOUND>
COc1ccc(OC)c(NS(=O)(=O)c2ccc(Cc3ccc4[nH]c(=O)cc(C(F)(F)F)c4c3)cc2)c1 [Example 33]

>  <IC50>
> 10 µM

$$$$

Next:
Ask | Missing value: IC50, androgen receptor (Homo sapiens), entry O=c1cc(C(F)(F)F)c2cc(Cc3ccc(S(=O)(=O)Nc4cccc(OC(F)(F)F)c4)cc3)ccc2[nH]1 [Example 42] . Fill in?
Reply | > 10 µM
